Tested on: MILI (PIWIL2) piRISC loaded with piRNA #1 (26 nt);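 note: 1 nM active piRISC with 0.1 nM target library at 33 °C single turnover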
measurement description: pre-steady-state target cleavage rate (min^-1); guide: piRNA #1 5'p-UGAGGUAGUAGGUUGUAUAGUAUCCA; MIWI and MILI are mouse PIWI proteins and EfPiwi is from a freshwater sponge; tags in brackets are library labels; higher = faster piRNA-guided slicing of the target
experimental parameters: auxiliary factor: 500 nM mouse GTSF1
The entries below are paired with their reported pre-steady-state target cleavage rate.
# respond with the number and nothing more

GGAGUGGAUACUAUACAACCUACUACCUACA	0.122

Problem: Please state recorded pre-steady-state target cleavage rate (tested on MILI (PIWIL2) piRISC loaded with piRNA #1 (26 nt)) of `GGAGACCUAUGUAUACAACCUACGACCUCA`;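 note: 1 nM active piRISC with 0.1 nM target library at 33 °C single turnover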
Result: 0.0402

Problem: Also `GGAGACCUAUGAUAAAACCUACUACCUCA` ?
Result: 0.00798

Problem: Please answer likewise for `GGAGACCUAUGAUUACAUCCAACUACCUCA`
Result: 0.00328

Problem: What do we get for `GGAGACCUUACUAUAUAACCUACUACCUCA` ?
Result: 0.124

Problem: Also check `GGAGUGGAUACUAUACAAACUACUACCUCA`
Result: 0.195
